Could you please report measured MIC for the items listed next?
System: Pseudomonas aeruginosa
assay procedure: MIC against clinical isolates
Format: cell-based
condition label: clinical isolate GN 2565; unit assumed
The figure you give is taken to be in µg/mL; do not add the unit.

Incoming: Look up MIC with Pseudomonas aeruginosa for this compound: CN1CCN(C(=O)NC(C(=O)NC2C(=O)N3C(C(=O)O)=C(CSc4nnnn4C)CSC23)c2ccccc2)C(=O)C1=O (single isomer, unassigned) [compound 63]
Outgoing: 50

Incoming: Kindly state the measured MIC obtained for CCCCN1CCN(C(=O)N[C@@H](C(=O)N[C@@H]2C(=O)N3[C@@H]2SC(C)(C)[C@@H]3C(=O)O)c2ccccc2)C(=O)C1 [compound 14] with Pseudomonas aeruginosa.
Outgoing: 50

Incoming: What MIC appears in the records for this compound with Pseudomonas aeruginosa? CCCCCN1CCN(C(=O)N[C@@H](C(=O)N[C@@H]2C(=O)N3[C@@H]2SC(C)(C)[C@@H]3C(=O)O)c2ccccc2)C(=O)C1=O (single isomer, unassigned) [compound 45]
Outgoing: 25

Incoming: Item: CCCCN1CCN(C(=O)N[C@@H](C(=O)N[C@@H]2C(=O)N3[C@@H]2SC(C)(C)[C@@H]3C(=O)O)c2ccccc2)C(=O)C1=O (single isomer, unassigned) [compound 39] Test system: Pseudomonas aeruginosa Read-out: MIC Value: ?
Outgoing: 12.5
